Would you mind telling me the reported inhibition of each entry?
# Target Entity: Adenosine receptor A2a (Homo sapiens, UniProt P29274)
# Sequence (P29274 whole entry): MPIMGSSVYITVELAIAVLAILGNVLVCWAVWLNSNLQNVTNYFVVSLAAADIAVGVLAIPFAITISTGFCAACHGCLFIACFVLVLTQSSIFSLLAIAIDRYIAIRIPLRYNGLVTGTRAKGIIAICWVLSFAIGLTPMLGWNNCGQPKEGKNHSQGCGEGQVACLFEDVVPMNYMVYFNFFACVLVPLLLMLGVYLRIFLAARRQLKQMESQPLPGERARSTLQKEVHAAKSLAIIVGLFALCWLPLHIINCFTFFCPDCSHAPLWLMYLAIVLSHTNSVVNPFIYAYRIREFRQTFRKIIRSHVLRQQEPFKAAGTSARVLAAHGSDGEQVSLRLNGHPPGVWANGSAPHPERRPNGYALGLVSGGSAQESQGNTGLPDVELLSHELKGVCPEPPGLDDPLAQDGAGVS
# Protocol Description: Displacement of [3H]ZM241385 from human adenosine A2A receptor expressed in CHO cells at 1 uM
# Format: cell-based
Output should be the measured figure followed by the unit it is expressed in.

IN: Give the reported inhibition for this compound. `CCc1nc2c(C)cc(C)nc2[nH]1`
OUT: 8%

IN: Give the reported inhibition for this compound. `c1ccc(-c2cc(-c3ccccc3)c3nc(C4CCCC4)[nH]c3n2)cc1`
OUT: 49%

IN: Give the reported inhibition for this compound. `c1ccc(Cn2cnc3c(-c4ccccc4)cc(-c4ccccc4)nc32)cc1`
OUT: 2%

IN: Give the reported inhibition for this compound. `c1cnc2[nH]c(C3CCCC3)nc2c1`
OUT: 3%

====

# Target Entity: Adenosine receptor A1 (Homo sapiens, UniProt P30542)
# Sequence (P30542 whole entry): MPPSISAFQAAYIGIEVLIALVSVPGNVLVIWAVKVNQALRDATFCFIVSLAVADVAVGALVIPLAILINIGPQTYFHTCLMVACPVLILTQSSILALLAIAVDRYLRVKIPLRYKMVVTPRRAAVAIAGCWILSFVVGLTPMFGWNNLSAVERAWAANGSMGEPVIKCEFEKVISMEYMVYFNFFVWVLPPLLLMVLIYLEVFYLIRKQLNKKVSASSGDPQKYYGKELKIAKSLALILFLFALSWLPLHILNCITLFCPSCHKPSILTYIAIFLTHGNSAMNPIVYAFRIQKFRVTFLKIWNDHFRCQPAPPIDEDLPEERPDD
# Protocol Description: Displacement of [3H]DPCPX from human adenosine A1 receptor expressed in CHO cells
# Format: cell-based
Observable: Ki

IN: Give the reported Ki for this molecule. `CCC(CC)c1nc2c(-c3ccccc3)cc(-c3ccccc3)nc2[nH]1`
OUT: 0.87 nM (antagonist)

IN: Give the reported Ki for this molecule. `CCCc1nc2c(-c3ccccc3)cc(-c3ccccc3)nc2[nH]1`
OUT: 2.5 nM (antagonist)

IN: Give the reported Ki for this molecule. `CC(C)(C)c1nc2c(-c3ccccc3)cc(-c3ccccc3)nc2[nH]1`
OUT: 5.5 nM (antagonist)

IN: Give the reported Ki for this molecule. `CCc1nc2c(-c3ccccc3)cc(-c3ccccc3)nc2[nH]1`
OUT: 2.4 nM (antagonist)
